SYSTEM_NAME: KRAS^G12D-FMe.RAF1^RBDCRD complex (Homo sapiens, UniProt P01116, G12D)
TEST_DESCRIPTION: SHG assay: binding to bilayer-tethered KRAS G12D/RAF1 complex
REPORTED_CONDITIONS: GppNHp-loaded complex on PS bilayer; compound 0.027-40 μM, monitored over 60 min
Method: Compounds suspected to carry intrinsic SHG activity were tested in the presence of an unlabeled KRAS^G12D-FMe.RAF1^RBDCRD complex to monitor binding. […] The SHG signal produced by bilayer-tethered complex was ready using the Biodesy Delta™ platform where each well was pulsed with an 800 nm laser and the resulting second harmonic signal intensity at 400 nm was collected. […]
pEC50: −log10 of the molar value.
In this section we review reported pEC50 values for a set of compounds.

Cc1ccc(-c2ncc(CN3CCN(C)C3=O)c(N3CCC(CN)C3)n2)cc1Cl (stereo not shown) [Compound 120] :: 4.30 to 5.00

Q: Please give the measured pEC50 for this compound: N#CC1(C(=O)NCc2cnc(-c3ccc(Cl)c(C(F)(F)F)c3)nc2N2CCC[C@@H]2CN)CC1 [Compound 66]
A: 5.00 to 6.00

Q: Could you do the same for Cc1ccc(-c2ncc(CNC(=O)C3(F)CC3)c(OC3CCN(C)C3)n2)cc1Cl (stereo not shown) [Compound 89] , please?
A: 4.30 to 5.00

Q: Now consider Cc1ccc(-c2ncc(CNC(=O)C3CNC3)c(N3CCC(CN)C3)n2)cc1Cl (stereo not shown) [Compound 85] .
A: 5.00 to 6.00

Q: Similarly, N#CC1(C(=O)N2CC=C(c3cnc(-c4ccc(Cl)c(C(F)(F)F)c4)nc3OCCN)C2)CC1 [Compound 36] ?
A: 5.00 to 6.00

Q: Check CN(C)CC1CCN(c2nc(-c3cc(Cl)cc(C#Cc4ccccc4)c3)ncc2CNC(=O)C2(C#N)CC2)C1 (stereo not shown) [Compound 143] too.
A: 5.00 to 6.00

Q: Cc1ccc(-c2ncc(CNC(=O)C3(C#N)CC3)c(N3CCC(CN)C3)n2)cc1Cl (stereo not shown) [Compound 41] , same question.
A: 5.00 to 6.00

----------
SYSTEM_NAME: KRAS^G12D-FMe.RAF1^RBDCRD complex (Homo sapiens, UniProt P01116, G12D)
TEST_DESCRIPTION: SHG assay: binding to bilayer-tethered KRAS G12D/RAF1 complex
REPORTED_CONDITIONS: GppNHp-loaded complex on PS bilayer; compound 0.027-40 μM, monitored over 60 min
pEC50: −log10 of the molar value.
Catalogue of pEC50 readings, one per entry.

Examples from the recorded data:
Cc1ccc(-c2ncc(C3=CCNC3)c(N3CCC(CN)C3)n2)cc1C(F)(F)F (centres unmarked) :: 6.00 to 7.00
NCc1cnc(-c2ccc(Cl)c(C(F)(F)F)c2)nc1N1CC[C@@H](CN)C1 :: 5.00 to 6.00
Cc1ccc(-c2ncc(CNC(=O)C3(F)CC3)c(N3CCN(C)CC3)n2)cc1Cl :: 4.30 to 5.00
N#CC1(C(=O)NCc2cnc(-c3ccc(Cl)c(C(F)(F)F)c3)nc2N2CCOC(CN)C2)CC1 (centres unmarked) :: 5.00 to 6.00
N[C@H]1CN(c2nc(-c3ccc(Cl)c(C(F)(F)F)c3)ncc2C2=CCNC2)C[C@@H]1O :: 5.00 to 6.00

Q: // query pEC50 value for entry "Cc1ccc(-c2ncc(CNC(=O)C3(C#N)CC3)c(N3CCC[C@H]3CN)n2)cc1Cl"
A: 4.30 to 5.00

Q: And then N#CC1(C(=O)NCc2cnc(-c3ccc(Cl)c(C(F)(F)F)c3)nc2OC2CCNC2)CC1 (centres unmarked) , what is it?
A: 4.30 to 5.00

Q: Consider next the compound Cc1ccc(-c2ncc(NC(=O)C3(C#N)CC3)c(N3CCC(CN)C3)n2)cc1Cl (centres unmarked) in the same way.
A: 4.30 to 5.00

----------
SYSTEM_NAME: KRAS^G12D-FMe.RAF1^RBDCRD complex (Homo sapiens, UniProt P01116, G12D)
TEST_DESCRIPTION: SHG assay: binding to bilayer-tethered KRAS G12D/RAF1 complex
REPORTED_CONDITIONS: GppNHp-loaded complex on PS bilayer; compound 0.027-40 μM, monitored over 60 min
pEC50: −log10 of the molar value.
READOUT: pEC50

Before answering, review these 3 worked examples.
NCC1CCN(c2nc(-c3ccc(C(F)(F)F)cc3F)ncc2C2CCNC2)C1 (stereo not shown) :: 5.00 to 6.00
N#CC1(C(=O)NCc2cnc(-c3ccc(Cl)c(C(F)(F)F)c3)nc2OCCN)CC1 :: 5.00 to 6.00
Cc1ccc(-c2ncc(CNC(=O)C3(F)CC3)c(N3CC[C@H](CN)C3)n2)cc1Cl :: 5.00 to 6.00

Now look at this one.
Q: Which pEC50 reading was recorded for the compound "CN1CC(Oc2nc(-c3ccc(Cl)c(C(F)(F)F)c3)ncc2CNC(=O)C2(C#N)CC2)C1" ?
A: 4.30 to 5.00

----------
We begin with a simple list: items and their reported EC50.
SYSTEM_NAME: KRAS^G12D-FMe.RAF1^RBDCRD complex (Homo sapiens, UniProt P01116, G12D)
TEST_DESCRIPTION: SHG assay: binding to bilayer-tethered KRAS G12D/RAF1 complex
REPORTED_CONDITIONS: GppNHp-loaded complex on PS bilayer; compound 0.027-40 μM, monitored over 60 min

# example entries with known answers
NCC1CCN(c2nc(-c3ccc(Cl)c(C(F)(F)F)c3)ncc2[N+](=O)[O-])C1 (stereo not drawn) :: 10 to 50 µM
N#CC1(C(=O)NCc2cnc(-c3ccc(Cl)c(OC(F)(F)F)c3)nc2N2CCC(CN)C2)CC1 (stereo not drawn) :: 1 to 10 µM

Let's switch to this compound now.
Q: What reported EC50 corresponds to N#Cc1cc(-c2ncc(CNC(=O)C3(F)CC3)c(N3CCC(CN)C3)n2)ccc1Cl (stereo not drawn) on KRAS^G12D-FMe.RAF1^RBDCRD complex (Homo sapiens, UniProt P01116, G12D)?
A: 10 to 50 µM

----------
SYSTEM_NAME: KRAS^G12D-FMe.RAF1^RBDCRD complex (Homo sapiens, UniProt P01116, G12D)
TEST_DESCRIPTION: SHG assay: binding to bilayer-tethered KRAS G12D/RAF1 complex
REPORTED_CONDITIONS: GppNHp-loaded complex on PS bilayer; compound 0.027-40 μM, monitored over 60 min
READOUT: EC50

N#CC1(C(=O)NCc2cnc(-c3ccc(Cl)c(C(F)(F)F)c3)nc2OC2CNC2)CC1 :: 1 to 10 µM
N#CC1(C(=O)NCc2cnc(-c3ccc4c(c3)CCC4)nc2N2CCC(CN)C2)CC1 (stereo not drawn) :: 10 to 50 µM
Cc1ccc(-c2ncc(CNC(=O)C3(F)CC3)c(N3CC(CN)C3)n2)cc1Cl :: 10 to 50 µM

Q: Form field: reported EC50 of "Cc1ccc(-c2ncc(CNC(=O)C3(F)CC3)c(N3C[C@@H]4[C@@H](N)[C@@H]4C3)n2)cc1Cl"
A: 1 to 10 µM

Q: Now try "Cc1ccc(-c2ncc(CN(C)C(=O)C3(F)CC3)c(N3CCNCC3)n2)cc1Cl" .
A: 1 to 10 µM

Q: Also CS(=O)(=O)NCc1cnc(-c2ccc(Cl)c(C(F)(F)F)c2)nc1N1CCC(CN)C1 (stereo not drawn) , if possible.
A: 1 to 10 µM

Q: And what about the molecule "NC[C@@H]1CCCN1c1nc(-c2ccc(Cl)c(C(F)(F)F)c2)ncc1C1=CCNC1" ?
A: < 0.1 µM

Q: One more molecule: "N#CC1(C(=O)NCc2cnc(-c3ccc(Cl)c(C(F)(F)F)c3)nc2N2C[C@@H](N)[C@H](O)C2)CC1"
A: 10 to 50 µM

Q: Try the molecule Cc1ccc(-c2ncc(CNC(=O)C3(C#N)CC3)c(N3CCC(CN(C)C)C3)n2)cc1Cl (stereo not drawn)
A: 1 to 10 µM
